Test: Metabolism by human liver microsomes
Type: in vitro ADME
Settings: human, human liver microsomes
measured.property: CLint scaled at 24 h, 10 µM
State the value, then name its unit.

# compound CC1=C2Cc3cc(ccc3O)C(=O)O[C@H](C(C)(C)Br)CC[C@](C)(O)[C@H](Br)CC[C@]2(C)[C@@H](Br)CC1 [compound 1, bromophycolide A] ; its CLint scaled at 24 h, 10 µM = 1.6 mL/min/kg

* * *

Test: Metabolism by human liver S9 fraction
Format: in vitro ADME
Conditions: human, human liver S9 fraction
measured.property: half-life (h)
// return numeric value only (unit: h, not printed)

Lab book: half-life of CC1=C2Cc3cc(ccc3O)C(=O)O[C@H](C(C)(C)Br)CC[C@](C)(O)[C@H](Br)CC[C@]2(C)[C@@H](Br)CC1 [compound 1, bromophycolide A] noted as 9.5
